Molecular target: UniProt:O00329
Sequence (O00329 whole entry, looked up): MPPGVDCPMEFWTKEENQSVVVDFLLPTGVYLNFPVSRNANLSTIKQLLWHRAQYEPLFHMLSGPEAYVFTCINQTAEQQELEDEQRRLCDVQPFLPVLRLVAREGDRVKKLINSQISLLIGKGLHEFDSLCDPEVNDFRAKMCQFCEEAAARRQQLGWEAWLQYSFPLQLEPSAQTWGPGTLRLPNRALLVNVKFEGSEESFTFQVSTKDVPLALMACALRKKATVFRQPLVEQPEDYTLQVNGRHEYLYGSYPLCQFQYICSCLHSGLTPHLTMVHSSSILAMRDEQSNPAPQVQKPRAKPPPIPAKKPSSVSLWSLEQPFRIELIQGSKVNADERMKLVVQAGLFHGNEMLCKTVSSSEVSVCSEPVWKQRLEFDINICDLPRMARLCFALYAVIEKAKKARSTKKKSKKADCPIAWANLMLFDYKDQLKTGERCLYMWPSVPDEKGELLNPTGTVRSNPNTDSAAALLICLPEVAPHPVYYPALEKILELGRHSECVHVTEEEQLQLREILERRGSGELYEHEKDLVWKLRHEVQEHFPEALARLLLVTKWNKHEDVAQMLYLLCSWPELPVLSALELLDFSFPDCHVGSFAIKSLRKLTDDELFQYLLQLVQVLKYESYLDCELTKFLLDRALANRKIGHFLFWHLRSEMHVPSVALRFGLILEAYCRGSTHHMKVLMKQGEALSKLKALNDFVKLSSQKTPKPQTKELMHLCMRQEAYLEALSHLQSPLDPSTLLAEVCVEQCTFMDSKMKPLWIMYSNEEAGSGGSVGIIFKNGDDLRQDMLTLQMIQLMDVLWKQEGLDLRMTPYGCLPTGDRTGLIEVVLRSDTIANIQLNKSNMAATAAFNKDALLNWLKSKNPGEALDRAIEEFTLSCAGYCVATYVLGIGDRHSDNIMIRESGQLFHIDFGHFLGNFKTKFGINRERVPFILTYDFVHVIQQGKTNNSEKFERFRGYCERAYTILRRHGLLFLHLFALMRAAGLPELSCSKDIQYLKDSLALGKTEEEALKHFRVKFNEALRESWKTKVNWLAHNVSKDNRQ
Assay: Assessment of PIK3CD Kinase Activity
pIC50: −log10 of the molar value.
The entries below are paired with their reported pIC50.

// solved cases for pIC50 follow
| item smiles | result |
| --- | --- |
| C[C@H](Nc1ccnn2ccnc12)c1cc2cccc(-c3cnn(C)c3)c2c(=O)n1-c1ccccc1 | > 7.00 |
| C[C@H](Nc1ncnc2cccnc12)c1cc2cccc(-c3cnn(C)c3)c2c(=O)n1C1CC1 | > 7.00 |
| C[C@H](Nc1ccnc2ccnn12)c1cc2cccc(-c3cnn(C)c3)c2c(=O)n1-c1ccccc1 | > 7.00 |
| C[C@H](Nc1cc(Cl)nn2ccnc12)c1cc2cccc(-c3cnn(C)c3)c2c(=O)n1-c1cccc(F)c1 | 6.00 to 7.00 |
| C[C@H](Nc1c(C#N)cnc2cccnc12)c1cc2cccc(C(F)(F)F)c2c(=O)n1-c1ccccc1 | < 5.00 |

Data request: Name the recorded pIC50 of the item C[C@H](Nc1nc(N)nc2nccnc12)c1cc2cccc(Cl)c2c(=O)n1-c1ccccc1 in your answer.
Data returned: 6.00 to 7.00

Data request: Name the recorded pIC50 of the item C[C@H](Nc1ccnn2ccnc12)c1cc2cccc(-c3cnn(C)c3)c2c(=O)n1-c1cccc(F)c1 in your answer.
Data returned: > 7.00

Data request: Name the recorded pIC50 of the item C[C@H](Nc1nc(N)nc2cccnc12)c1cc2cccc(-c3cnc4[nH]ccc4c3)c2c(=O)n1-c1ccccc1 in your answer.
Data returned: > 7.00

Data request: Name the recorded pIC50 of the item C[C@H](Nc1ncnc2cccnc12)c1cc2ccc(F)c(Cl)c2c(=O)n1-c1ccccc1 in your answer.
Data returned: > 7.00

====

The entries below are paired with their reported IC50.
Target: PIK3CD (Human)
Assay: Assessment of PIK3CD Kinase Activity

// solved cases for IC50 follow
| item smiles | result |
| --- | --- |
| C[C@H](Nc1cc(Cl)ncc1C(N)=O)c1cc2cccc(Cl)c2c(=O)n1-c1ccccc1 | 100 to 1000 nM |
| COc1nc(N[C@@H](C)c2cc3cccc(Cl)c3c(=O)n2-c2ccccc2)c2ncccc2n1 | > 10000 nM |
| Cc1cc(-c2cccc3cc([C@H](C)Nc4ncnc5cccnc45)n(-c4ccccc4)c(=O)c23)ccn1 | < 100 nM |
| CNc1nc(N[C@@H](C)c2cc3cccc(Cl)c3c(=O)n2-c2ccccc2)c2ncccc2n1 | < 100 nM |
| C[C@H](Nc1nc(N)nc2scnc12)c1cc2cccc(C(F)(F)F)c2c(=O)n1-c1ccccc1 | < 100 nM |

# evaluate next
Data request: Name the recorded IC50 of the item C[C@H](Nc1ccnn2ccnc12)c1cc2cccc(Cl)c2c(=O)n1C1CC1 in your answer.
Data returned: < 100 nM

====

Molecular target: PIK3CA (human)
Assay: Assessment of PIK3CA Kinase Activity
The entries below are paired with their reported IC50.

| item smiles | IC50 |
| --- | --- |
| C[C@H](Nc1nc(N)nc2cccnc12)c1cc2cccc(-c3cnc4ccccc4c3)c2c(=O)n1-c1ccccc1 | 0.1 to 1 µM |
| C[C@H](Nc1ncnc2cccnc12)c1cc2cccc(Cl)c2c(=O)n1CCN1CCCC1 | > 10 µM |
| C[C@H](Nc1ncnc2ccnn12)c1cc2cccc(Cl)c2c(=O)n1-c1cccc(F)c1 | > 10 µM |
| C[C@H](Nc1ncnc2[nH]cc(C#N)c12)c1cc2cccc(C(F)(F)F)c2c(=O)n1-c1ccccc1 | > 10 µM |
| COc1ncc(-c2cccc3cc([C@H](C)Nc4ccnc5ccnn45)n(-c4ccccc4)c(=O)c23)cn1 | > 10 µM |
| C[C@H](Nc1ncc2[nH]cnc2n1)c1cc2cccc(Cl)c2c(=O)n1-c1ccccc1 | > 10 µM |
| CNc1nc(N[C@@H](C)c2cc3cccc(NC)c3c(=O)n2-c2ccccc2)c2ncccc2n1 | > 10 µM |
| CNc1cccc2cc([C@H](C)Nc3nc(N)nc4cccnc34)n(-c3ccccc3)c(=O)c12 | > 10 µM |

Data request: Report IC50 from PIK3CA (human) testing of C[C@H](Nc1ccnc2cccnc12)c1cc2cccc(C(F)(F)F)c2c(=O)n1-c1ccccc1
Data returned: > 10 µM

Data request: Report IC50 from PIK3CA (human) testing of C[C@H](Nc1ccnc2ccnn12)c1cc2scc(-c3cnn(C)c3)c2c(=O)n1-c1ccccc1
Data returned: > 10 µM

Data request: Report IC50 from PIK3CA (human) testing of COc1ncc(-c2cccc3cc([C@H](C)Nc4cc(N)nc5ccnn45)n(-c4ccccc4)c(=O)c23)cn1
Data returned: > 10 µM

Data request: Report IC50 from PIK3CA (human) testing of C[C@H](Nc1nc(N)nc2cccnc12)c1cc2cccc(-c3cnn(C)c3)c2c(=O)n1C1CC1
Data returned: 0.1 to 1 µM

Data request: Report IC50 from PIK3CA (human) testing of C[C@H](Nc1ncnc2cccnc12)c1cc2ccc(F)c(Cl)c2c(=O)n1-c1ccccc1
Data returned: 0.1 to 1 µM

Data request: Report IC50 from PIK3CA (human) testing of C[C@H](Nc1nc(N)nc2cccnc12)c1cc2cccc(-c3cnc4[nH]ccc4c3)c2c(=O)n1-c1ccccc1
Data returned: 0.1 to 1 µM

Data request: Report IC50 from PIK3CA (human) testing of Cc1ncc(-c2cccc3cc([C@H](C)Nc4ncnc5cccnc45)n(-c4ccccc4)c(=O)c23)cn1
Data returned: > 10 µM

Data request: Report IC50 from PIK3CA (human) testing of C[C@H](Nc1nc(N)nc2cccnc12)c1cc2cccc(Cl)c2c(=O)n1-c1ccc(F)cc1
Data returned: 0.1 to 1 µM

Data request: Report IC50 from PIK3CA (human) testing of C[C@H](Nc1ncnc(N)c1C#N)c1cc2cccc(C(F)(F)F)c2c(=O)n1-c1ccccc1
Data returned: > 10 µM

Data request: Report IC50 from PIK3CA (human) testing of C[C@H](Nc1nc(Cl)nc2cccnc12)c1cc2cccc(-c3cnn(C)c3)c2c(=O)n1-c1cccc(F)c1
Data returned: > 10 µM

====

The entries below are paired with their reported pIC50.
Biological target: UniProt P42336
Sequence (P42336 whole entry, looked up): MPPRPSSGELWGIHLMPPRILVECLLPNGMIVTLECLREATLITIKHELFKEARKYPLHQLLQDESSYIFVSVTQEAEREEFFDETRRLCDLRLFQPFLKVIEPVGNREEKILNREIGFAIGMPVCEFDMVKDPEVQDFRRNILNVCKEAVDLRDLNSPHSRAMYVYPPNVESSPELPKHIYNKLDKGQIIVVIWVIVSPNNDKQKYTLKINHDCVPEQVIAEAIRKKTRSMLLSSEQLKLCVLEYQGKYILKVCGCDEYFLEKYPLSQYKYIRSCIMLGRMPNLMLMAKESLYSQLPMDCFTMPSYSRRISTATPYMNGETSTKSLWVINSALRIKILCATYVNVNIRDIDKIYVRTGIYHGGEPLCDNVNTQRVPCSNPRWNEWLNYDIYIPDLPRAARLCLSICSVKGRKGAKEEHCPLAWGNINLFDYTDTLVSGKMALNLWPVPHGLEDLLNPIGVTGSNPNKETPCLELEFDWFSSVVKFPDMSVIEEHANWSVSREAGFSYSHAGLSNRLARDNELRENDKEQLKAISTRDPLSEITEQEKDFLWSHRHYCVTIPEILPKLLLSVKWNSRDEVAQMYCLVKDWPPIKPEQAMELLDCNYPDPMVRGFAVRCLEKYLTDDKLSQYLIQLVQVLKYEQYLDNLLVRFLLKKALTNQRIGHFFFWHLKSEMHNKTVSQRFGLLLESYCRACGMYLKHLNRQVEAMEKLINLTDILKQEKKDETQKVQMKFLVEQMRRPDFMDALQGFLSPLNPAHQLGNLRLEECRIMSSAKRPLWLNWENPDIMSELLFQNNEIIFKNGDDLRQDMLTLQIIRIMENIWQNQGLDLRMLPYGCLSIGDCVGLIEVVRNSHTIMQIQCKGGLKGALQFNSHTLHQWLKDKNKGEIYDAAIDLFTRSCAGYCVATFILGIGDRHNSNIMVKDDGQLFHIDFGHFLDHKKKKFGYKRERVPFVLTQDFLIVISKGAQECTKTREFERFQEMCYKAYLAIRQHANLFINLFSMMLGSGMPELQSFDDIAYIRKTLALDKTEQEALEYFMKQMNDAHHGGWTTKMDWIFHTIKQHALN
Assay: Assessment of PIK3CA Kinase Activity
pIC50: −log10 of the molar value.

// solved cases for pIC50 follow
| item smiles | pIC50 |
| --- | --- |
| COc1cncc(-c2cccc3cc([C@H](C)Nc4nc(N)nc5cccnc45)n(-c4ccccc4)c(=O)c23)c1 | 6.00 to 7.00 |
| C[C@H](Nc1ccnc2ccnn12)c1cc2cccc(C(F)(F)F)c2c(=O)n1-c1cccc(F)c1 | < 5.00 |
| Cc1cn2nccc(N[C@@H](C)c3cc4cccc(-c5cnn(C)c5)c4c(=O)n3-c3ccccc3)c2n1 | < 5.00 |
| C[C@H](Nc1ncnc2cccnc12)c1cc2cccc(Cl)c2c(=O)n1-c1cccc(F)c1 | 6.00 to 7.00 |
| Cc1nc2c(N[C@@H](C)c3cc4cccc(C(F)(F)F)c4c(=O)n3-c3ccccc3)ncnc2s1 | < 5.00 |
| Cc1cccc2cc([C@H](C)Nc3nc(N)nc4cccnc34)n(-c3cccc(F)c3)c(=O)c12 | 6.00 to 7.00 |
| C[C@H](Nc1nc(Cl)nc2nc(Cl)cnc12)c1cc2cccc(Cl)c2c(=O)n1-c1ccccc1 | < 5.00 |

Data request: Name the recorded pIC50 of the item C[C@H](Nc1cc(Cl)nn2ccnc12)c1cc2cccc(-c3cnn(C)c3)c2c(=O)n1-c1cccc(F)c1 in your answer.
Data returned: < 5.00

====

Target: PIK3CB (Human) (UniProt P42338)
Sequence (P42338 whole entry, looked up): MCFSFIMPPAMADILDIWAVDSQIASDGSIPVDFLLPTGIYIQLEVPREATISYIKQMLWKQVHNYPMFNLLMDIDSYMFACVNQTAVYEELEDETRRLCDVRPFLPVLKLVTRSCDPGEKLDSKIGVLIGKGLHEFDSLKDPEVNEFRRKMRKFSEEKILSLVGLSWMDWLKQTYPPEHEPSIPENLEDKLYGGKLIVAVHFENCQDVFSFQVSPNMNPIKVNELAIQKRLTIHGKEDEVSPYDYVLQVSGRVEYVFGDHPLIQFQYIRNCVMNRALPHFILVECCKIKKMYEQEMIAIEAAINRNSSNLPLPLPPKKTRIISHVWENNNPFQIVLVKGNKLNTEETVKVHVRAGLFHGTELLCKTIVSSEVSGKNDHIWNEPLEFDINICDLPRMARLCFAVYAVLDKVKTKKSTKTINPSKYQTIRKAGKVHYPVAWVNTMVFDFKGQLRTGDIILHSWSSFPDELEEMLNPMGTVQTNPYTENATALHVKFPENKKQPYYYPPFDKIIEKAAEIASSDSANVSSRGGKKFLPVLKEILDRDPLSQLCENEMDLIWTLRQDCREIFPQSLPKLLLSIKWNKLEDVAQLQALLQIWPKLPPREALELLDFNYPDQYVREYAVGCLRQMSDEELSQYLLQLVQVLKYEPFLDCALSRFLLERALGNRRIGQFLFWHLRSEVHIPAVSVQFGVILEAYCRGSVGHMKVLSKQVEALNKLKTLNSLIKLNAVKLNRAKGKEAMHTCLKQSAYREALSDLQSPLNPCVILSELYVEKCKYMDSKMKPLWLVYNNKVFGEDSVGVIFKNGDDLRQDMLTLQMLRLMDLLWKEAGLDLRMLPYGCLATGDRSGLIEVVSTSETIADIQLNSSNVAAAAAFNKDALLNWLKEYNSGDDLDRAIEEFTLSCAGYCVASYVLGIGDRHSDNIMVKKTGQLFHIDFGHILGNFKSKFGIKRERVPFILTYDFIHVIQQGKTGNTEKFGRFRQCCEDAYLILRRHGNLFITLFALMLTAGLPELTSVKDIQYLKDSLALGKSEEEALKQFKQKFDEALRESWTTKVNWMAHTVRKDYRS
The entries below are paired with their reported IC50.

// solved cases for IC50 follow
| compound | system tested | IC50 |
| --- | --- | --- |
| C[C@H](Nc1ncnc2ccnn12)c1cc2cccc(Cl)c2c(=O)n1-c1ccccc1 | PIK3CB (Human) (UniProt P42338) | 0.1 to 1 µM |
| C[C@H](Nc1ncnc2cccnc12)c1cc2cccc(Cl)c2c(=O)n1C1CC1 | PIK3CB (Human) (UniProt P42338) | < 0.1 µM |
| C[C@H](Nc1cc(Cl)ncc1C(N)=O)c1cc2cccc(Cl)c2c(=O)n1-c1ccccc1 | PIK3CB (Human) (UniProt P42338) | > 10 µM |
| C[C@H](Nc1nc(Cl)ns1)c1cc2cccc(Cl)c2c(=O)n1-c1ccccc1 | PIK3CB (Human) (UniProt P42338) | > 10 µM |
| C[C@H](Nc1nc(N)nc2cccnc12)c1cc2cccc(Cl)c2c(=O)n1-c1ccc(F)cc1 | PIK3CB (Human) (UniProt P42338) | < 0.1 µM |
| Cc1nsc2cc(C(C)Nc3ncnc4cccnc34)n(-c3ccccc3)c(=O)c12 (centres undefined) | PIK3CB (Human) (UniProt P42338) | > 10 µM |

Data request: Report IC50 from PIK3CB (Human) (UniProt P42338) testing of C[C@H](Nc1nc(N)nc2cccnc12)c1cc2cccc(N(C)C)c2c(=O)n1-c1ccccc1
Data returned: > 10 µM

Data request: Report IC50 from PIK3CB (Human) (UniProt P42338) testing of C[C@H](NCc1cnc2cccnn12)c1cc2cccc(Cl)c2c(=O)n1-c1ccccc1
Data returned: > 10 µM

Data request: Report IC50 from PIK3CB (Human) (UniProt P42338) testing of C[C@H](Nc1ccn2nccc2n1)c1cc2cccc(Cl)c2c(=O)n1-c1ccccc1
Data returned: > 10 µM
